Some compounds, each annotated with its measured TGI.
# Tested on: OVCAR-4 ovarian
# protocol_summary: NCI tumour cell line growth inhibition, 48 h

CC(=O)N1[C@H](C(=O)O)CS[C@H]1c1ccncc1; > 100 µM
COC(=O)[C@@]12C3=NO[C@]1(C(=O)OC)C(O[Si](C)(C)C(C)(C)C)[C@H]1OC(C)(C)O[C@H]1[C@@H]2C(OCc1ccccc1)CC3 (stereo not given in full); 97.2 µM
Cc1ccc(S(=O)(=O)NC(=O)NC(CC(N)=O)C(=O)O)cc1 (stereo not given); > 100 µM
C[N+](C)(CCCn1ccnc1[N+](=O)[O-])CCCn1ccnc1[N+](=O)[O-]; > 100 µM

Task item: Please look at this compound and report its TGI: Oc1ccc(Cl)cc1-c1cc(-c2ccccc2Cl)[nH]n1
Reply: > 100 µM

Task item: Return reported TGI. Input compound: CS(=O)(=O)OCCCCOS(=O)(=O)CF
Reply: > 100 µM

Task item: Given CNC(=O)c1ccccc1Nc1nc(Nc2ccc(N3CCOCC3)cc2OC)ncc1Cl , respond with its TGI.
Reply: > 47.1 µM

Task item: Tell me its TGI given CSc1ccccc1C#C/C=C\C#Cc1ccccc1N1CCCC1=O as the entry.
Reply: > 50 µM

Task item: Note down TGI recorded for Nc1ncc(Br)c(NCC2(CO)CCC2)n1
Reply: > 100 µM

###

# Tested on: MDA-MB-231 breast
# protocol_summary: NCI tumour cell line growth inhibition, 48 h
observation_type: GI50

Answered cases to consult:
O=C(CCl)N1c2ccccc2Oc2ccc3ccccc3c21; 1.28 µM
Nc1cc2nc3ccccc3sc-2cc1=O; 1.76 µM
C=C(CNCCO)[C@@H]1CC[C@]2(CO)CC[C@]3(C)[C@H](CC[C@@H]4[C@@]5(C)CCC(N)C(C)(C)[C@@H]5CC[C@]43C)[C@@H]12 (some centres undefined); 1.52 µM
O=C1c2cccnc2-c2nc(-c3ccccc3[N+](=O)[O-])cc3c2c1nc1ccccc13; 3.89 µM
CC1=C(C#N)C23C(=O)c4ccccc4C(O)=C2C(=O)C=CC3(O)N1Cc1ccccc1 (centres undefined); 44.4 µM

Task item: State measured GI50 of the molecule CC1=C(C(=O)Nc2ccc(F)c(Cl)c2)C(c2ccc(Cl)cc2)NC(=O)N1 (centres undefined) with MDA-MB-231 breast.
Reply: 13.7 µM

Task item: State the measured GI50 (MDA-MB-231 breast) of CCc1ccc2c(c1)C(=O)c1c-2n(CCCBr)c(=O)c2cc([N+](=O)[O-])ccc12
Reply: 45.7 µM

Task item: Write down measured GI50 (MDA-MB-231 breast) for this molecule. C[C@@H](CS(C)(=O)=O)Nc1ncc2cc(Oc3ccc(F)cc3F)c(=O)n(C)c2n1
Reply: > 25 µM

###

# Tested on: DU-145 prostate
# protocol_summary: NCI tumour cell line growth inhibition, 48 h; in the data active = GI50 below about 0.43 µM; inactive = the rest
Give your call using only these classes: active, inactive

CCCCCCCC(=O)SCC/C=C/[C@@H]1CC(=O)NCc2cccc(n2)C2=N[C@@](C)(CS2)C(=O)N[C@@H](C(C)C)C(=O)N1; active

Task item: Could you check what this test reported for CCCCCCCCSC1=CC(=O)c2nc3ccccc3c3ccnc1c23 ?
Reply: inactive

Task item: Please state the recorded outcome for this compound: Oc1ccc(Cl)cc1-c1cc(-c2ccccc2Cl)[nH]n1
Reply: inactive

Task item: Recorded test call requested for COc1ccc(C2=CSc3cc(Cl)c(C)cc3S(=O)(=O)N2C(C)=O)cc1
Reply: inactive

Task item: What call does the record list for COc1ccc(-c2cc(-c3ccc(Nc4nc(Nc5ccccc5)nc(Nc5ccc(Cl)cc5)n4)cc3)nc(N)c2C#N)cc1 ?
Reply: inactive

Task item: For COc1cc(C(=O)/C=C/c2sc(Cl)nc2Cl)cc(OC)c1OC , what call appears in the results of this test?
Reply: inactive

Task item: Short answer needed: outcome of this test for COc1cc2nc(-c3ccc(C(F)(F)F)cc3)cc(OCCCN3CCC(O)CC3)c2cc1OC ?
Reply: inactive

Task item: Kindly provide the recorded test outcome for the following compound: C=C(CNCCO)[C@@H]1CC[C@]2(CO)CC[C@]3(C)[C@H](CC[C@@H]4[C@@]5(C)CCC(N)C(C)(C)[C@@H]5CC[C@]43C)[C@@H]12 (stereo not given in full)
Reply: inactive

Task item: Could you please tell me the result logged for O=c1n(CC2CO2)c(=O)n(CC2CO2)n1CC1CO1 (stereo not given) in this assay?
Reply: inactive

Task item: Fill in: this test's call for COC(=O)Nc1nc2ccc(S(=O)c3ccccc3)cc2[nH]1 (stereo not given) is ___
Reply: inactive

The measurements presented in this section are drawn from PubChem BioAssay (NCI).
